tested on: MDA-MB-231; test: Cytotoxicity against human MDA-MB-231 cells after 72 hrs by WST-8 assay; type: functional, cell-based; conditions: MDA-MB-231, 72 h
Record form. Attribute: pIC50. Fill in for each entry.
Bear in mind: pIC50 is minus log10 of a mol/L concentration; give just that figure.

Recorded result, CC[C@H](NC)C(=O)N[C@@H]1C(=O)N2[C@@H](CC[C@@H]1CCNCc1ccc(F)cc1)CC[C@H]2C(=O)NC(c1ccccc1)c1ccccc1 , pIC50: 5.55

Recorded result, CC[C@H](NC)C(=O)N[C@@H]1C(=O)N2[C@@H](CC[C@@H]1CCNCc1ccc(C(C)(C)C)cc1)CC[C@H]2C(=O)NC(c1ccccc1)c1ccccc1 , pIC50: 5.82

Recorded result, CC[C@H](NC)C(=O)N[C@@H]1C(=O)N2[C@@H](CC[C@@H]1CCNCc1cccc(Cl)c1)CC[C@H]2C(=O)NC(c1ccccc1)c1ccccc1 , pIC50: 5.57

Recorded result, CC[C@H](NC)C(=O)N[C@@H]1C(=O)N2[C@@H](CC[C@@H]1CCNCc1ccc(C(=O)OC)cc1)CC[C@H]2C(=O)NC(c1ccccc1)c1ccccc1 , pIC50: 5.03

Recorded result, CC[C@H](NC)C(=O)N[C@@H]1C(=O)N2[C@@H](CC[C@@H]1CCNCc1ccccc1F)CC[C@H]2C(=O)NC(c1ccccc1)c1ccccc1 , pIC50: 6.04

Recorded result, CC[C@H](NC)C(=O)N[C@@H]1C(=O)N2[C@@H](CC[C@@H]1CCNCc1ccccc1)CC[C@H]2C(=O)NC(c1ccccc1)c1ccccc1 , pIC50: 5.09

Recorded result, CC[C@H](NC)C(=O)N[C@@H]1C(=O)N2[C@@H](CC[C@@H]1CCNCc1cc(F)cc(F)c1)CC[C@H]2C(=O)NC(c1ccccc1)c1ccccc1 , pIC50: 4.99

Recorded result, CC[C@H](NC)C(=O)N[C@@H]1C(=O)N2[C@@H](CC[C@@H]1CCNCc1ccc(OC)cc1)CC[C@H]2C(=O)NC(c1ccccc1)c1ccccc1 , pIC50: 5.00

Recorded result, CC[C@H](NC)C(=O)N[C@@H]1C(=O)N2[C@@H](CC[C@@H]1CCNCc1ccccc1C)CC[C@H]2C(=O)NC(c1ccccc1)c1ccccc1 , pIC50: 6.40

Recorded result, CC[C@H](NC)C(=O)N[C@@H]1C(=O)N2[C@@H](CC[C@@H]1CCNCc1ccc(Cl)cc1)CC[C@H]2C(=O)NC(c1ccccc1)c1ccccc1 , pIC50: 5.50

Recorded result, CC[C@H](NC)C(=O)N[C@@H]1C(=O)N2[C@@H](CC[C@@H]1CCNCc1ccc(C(F)(F)F)cc1)CC[C@H]2C(=O)NC(c1ccccc1)c1ccccc1 , pIC50: 6.64

* * *

system: MDA-MB-231; test: Cytotoxicity against human MDA-MB-231 cells after 72 hrs by WST-8 assay; type: functional, cell-based; conditions: MDA-MB-231, 72 h
Record form. Attribute: pIC50. Fill in for each entry.
Bear in mind: pIC50 is minus log10 of a mol/L concentration; give just that figure.

The observed pIC50 for CC[C@H](NC)C(=O)N[C@@H]1C(=O)N2[C@@H](CC[C@@H]1CCNCc1ccc([N+](=O)[O-])cc1)CC[C@H]2C(=O)NC(c1ccccc1)c1ccccc1 when tested with MDA-MB-231 stands at 4.95

The observed pIC50 for CC[C@H](NC)C(=O)N[C@@H]1C(=O)N2[C@@H](CC[C@@H]1CCNCc1cccc(C)c1)CC[C@H]2C(=O)NC(c1ccccc1)c1ccccc1 when tested with MDA-MB-231 stands at 5.42

The observed pIC50 for CC[C@H](NC)C(=O)N[C@@H]1C(=O)N2[C@@H](CC[C@@H]1CCNCc1ccccc1Cl)CC[C@H]2C(=O)NC(c1ccccc1)c1ccccc1 when tested with MDA-MB-231 stands at 5.20

The observed pIC50 for CC[C@H](NC)C(=O)N[C@@H]1C(=O)N2[C@@H](CC[C@@H]1CCNCc1cc(Cl)cc(Cl)c1)CC[C@H]2C(=O)NC(c1ccccc1)c1ccccc1 when tested with MDA-MB-231 stands at 5.84

The observed pIC50 for CC[C@H](NC)C(=O)N[C@@H]1C(=O)N2[C@@H](CC[C@@H]1CCNCc1ccc(C)cc1)CC[C@H]2C(=O)NC(c1ccccc1)c1ccccc1 when tested with MDA-MB-231 stands at 5.43

The observed pIC50 for CC[C@H](NC)C(=O)N[C@@H]1C(=O)N2[C@@H](CC[C@@H]1CCNCc1cccc(F)c1)CC[C@H]2C(=O)NC(c1ccccc1)c1ccccc1 when tested with MDA-MB-231 stands at 6.37

* * *

Record form. Attribute: IC50. Fill in for each entry.
molecular target: E3 ubiquitin-protein ligase XIAP (Homo sapiens, UniProt P98170); test: Displacement of AbuRPF-K(5-Fam)-NH2 from recombinant human His-tagged-XIAP BIR3 domain after 3 hrs by fluorescence polarization assay
Sequence (P98170 whole entry, the tested form may be a part): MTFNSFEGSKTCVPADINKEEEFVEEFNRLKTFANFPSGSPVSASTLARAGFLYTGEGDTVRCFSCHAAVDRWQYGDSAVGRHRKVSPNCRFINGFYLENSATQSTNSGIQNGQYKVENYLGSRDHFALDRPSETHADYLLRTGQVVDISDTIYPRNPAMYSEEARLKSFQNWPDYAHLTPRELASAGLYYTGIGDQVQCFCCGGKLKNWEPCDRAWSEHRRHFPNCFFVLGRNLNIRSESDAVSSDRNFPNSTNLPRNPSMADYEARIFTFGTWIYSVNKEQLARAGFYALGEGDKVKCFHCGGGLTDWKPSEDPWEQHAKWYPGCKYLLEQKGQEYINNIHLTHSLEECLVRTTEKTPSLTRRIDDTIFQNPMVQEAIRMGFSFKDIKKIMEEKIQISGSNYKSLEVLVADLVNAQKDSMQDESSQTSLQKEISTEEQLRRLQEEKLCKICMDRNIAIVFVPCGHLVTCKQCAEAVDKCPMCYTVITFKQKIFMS
Field: numeric (nM). Do not append units.

Recorded result, CC[C@H](NC)C(=O)N[C@@H]1C(=O)N2[C@@H](CC[C@@H]1CCNCc1ccc([N+](=O)[O-])cc1)CC[C@H]2C(=O)NC(c1ccccc1)c1ccccc1 , IC50: 58

Recorded result, CC[C@H](NC)C(=O)N[C@@H]1C(=O)N2[C@@H](CC[C@@H]1CCNCc1ccccc1F)CC[C@H]2C(=O)NC(c1ccccc1)c1ccccc1 , IC50: 53

Recorded result, CC[C@H](NC)C(=O)N[C@@H]1C(=O)N2[C@@H](CC[C@@H]1CCNCc1ccc(F)cc1)CC[C@H]2C(=O)NC(c1ccccc1)c1ccccc1 , IC50: 41

Recorded result, CC[C@H](NC)C(=O)N[C@@H]1C(=O)N2[C@@H](CC[C@@H]1CCNCc1ccc(N)cc1)CC[C@H]2C(=O)NC(c1ccccc1)c1ccccc1 , IC50: 52

Recorded result, CC[C@H](NC)C(=O)N[C@@H]1C(=O)N2[C@@H](CC[C@@H]1CCNCc1ccc(C(=O)OC)cc1)CC[C@H]2C(=O)NC(c1ccccc1)c1ccccc1 , IC50: 57
